Test system: PC-3 prostate
Test: NCI tumour cell line growth inhibition, 48 h
outcome_measure: TGI

input: Name the reported TGI value associated with the molecule OCc1ccc(N2CCc3ccccc3C2)cc1Cl
output: > 62.3 µM

input: Record: O=S(=O)(/N=c1/scc(-c2ccccc2)n1-c1ccccc1)c1ccc(N2N=C3c4ccccc4CC3C2c2cccs2)cc1 (stereo not drawn)
output: > 100 µM

Below: the item to evaluate.
input: Name the reported TGI value associated with the molecule CCOC(=O)C(=O)/C(=C/N1C(=O)CC(=O)NC1=S)C(=O)OCC
output: > 100 µM

---

Test system: SK-OV-3 ovarian
Assay: NCI tumour cell line growth inhibition, 48 h
*1 amine or outer side, *2 acyl side, *3 side chain or, on linkers, in order; H or OH if unused. Where a SMILES comes first, the peptide text is derived from it. [ ]: non-standard residue; d: D form. The star is where a group is joined. X31 = CC(=O)N(C)SCC(N[*:1])C(=O)[*:2]; Cbz = O=C(OCc1ccccc1)*; Bn = c1ccc(C*)cc1
outcome_measure: TGI

Here's what some known entries look like.
input: Name the reported TGI value associated with the compound Nc1nc2c(ncn2Cc2ccccc2CO)c(=O)[nH]1
output: > 100 µM

input: Record: C1CC[C@H]2SSC3CCCC[C@H]3SSC2C1 (stereo partly specified)
output: > 100 µM

input: Record: CCN(CC)CCNc1ccc2nnn3c4ccc(O)cc4c(=O)c1c23
output: 40.3 µM

input: Record: CN1CCC2(CC1)C(=NC1CCCCC1)NC(=S)N2c1ccccc1
output: > 100 µM

input: Record: O=C1c2ccccc2-c2c1c1ccccc1c(=O)n2CCCNCCCCNCCCN1C(=O)c2ccccc2C2C(=O)c3ccccc3C21 (stereo unspecified)
output: 2.81 µM

input: Record: Brc1ccc2c(c1)-c1nc3nc4c(cc3cc1CC2)CCc1ccc(Br)cc1-4
output: > 100 µM

Quick one: give me TGI for each item below, same order please.
1. O=C1C(Cl)N(c2cccc([N+](=O)[O-])c2)C1c1c[nH]c2ccccc12 (stereo unspecified)
2. CC1(c2ccccc2)CC(c2cccc([N+](=O)[O-])c2)=NO1 (stereo unspecified)
3. NCC1OC(OC2C(CO)OC(OC3C(O)C(N)CC(N)C3OC3OC(CO)C(O)CC3N)C2O)C(N)C(O)C1OC1OC(CO)C(O)C(O)C1O (stereo unspecified)
4. OCCN1CCN2C=C(C3CCCC4N(CCO)CCN34)CCC21 (stereo unspecified)
5. CN1C/C=C/CCOc2cccc(c2)-c2ccnc(n2)Nc2cccc(c2)C1
6. Cc1ccc(NC(=O)c2sc3nc4c(cc3c2N)C(=O)CCC4)cc1C
7. CS(=O)(=O)CC(=O)c1ccccc1

output:
1. 38 µM
2. > 100 µM
3. > 50 µg/mL
4. > 100 µM
5. 3.82 µM
6. > 100 µM
7. > 100 µM

Quick one: give me TGI for each item below, same order please.
1. COc1ccccc1NC(=O)c1nc2ccc([N+](=O)[O-])cc2nc1C
2. CC(=O)N(C)SCC(NC(=O)C(Cc1ccccc1)NC(=O)OCc1ccccc1)C(=O)NC(Cc1ccccc1)C(=O)NC(Cc1c[nH]c2ccccc12)C(=O)NC(CCCCNC(=O)OCc1ccccc1)C(=O)NC(C(=O)NC(CSN(C)C(C)=O)C(=O)NC(C(N)=O)C(C)OCc1ccccc1)C(C)OCc1ccccc1 (stereo unspecified) (Cbz-F[X31]FWK(Cbz)T(Bn)[X31]T(Bn)-NH2; configuration not given here)
3. O=C(NCCNCCCNC(=O)c1cc(-c2ccccc2)nc2ccccc12)c1cccc(OCc2ccccc2)c1OCc1ccccc1

output:
1: > 100 µM; 2: > 100 µM; 3: 3.1 µM

Quick one: give me TGI for each item below, same order please.
1. CCOC(=O)C(NC(=O)c1ccccc1)(Nc1ccc(Cl)cc1C(F)(F)F)C(F)(F)F (stereo unspecified)
2. O=C(Nc1ccccc1)c1cc(S(=O)(=O)Nc2nc3ccccc3o2)c(SCc2ccccc2)cc1Cl
3. CC(=O)OC12c3ccccc3-c3ccccc3C1C1C(=O)OC(=O)C12 (stereo unspecified)
4. NN1C(=O)C(CCO)S/C1=N/N=C1/SC(CCO)C(=O)N1N (stereo unspecified)
5. CC(C)NC(=O)CCN(C(=O)O)S(=O)(=O)c1ccc(NC(=O)c2ccccc2)cc1
6. Cc1ccc(Cl)c(Nc2ccccc2C(=O)O)c1Cl
7. Cn1c(=O)sc2cc(C(=S)N3CCC(Cc4ccccc4)CC3)ccc21

output:
> 100 µM
58.7 µM
> 10 µM
> 100 µM
> 100 µM
65 µM
> 100 µM

Quick one: give me TGI for each item below, same order please.
1. CN1CCN(c2ccc3nc(-c4ccc5nc(-c6ccc(O)cc6)[nH]c5c4)[nH]c3c2)CC1
2. Cc1ccc2nc(C=Nc3ccc(Cl)cc3)cc(C)c2c1
3. CCOC(=O)c1[nH]cc(C)c1-c1ccc2c(-c3ccccc3)nc3ccccc3n12
4. OCc1ccc(N2CCc3ccccc3C2)cc1Cl

output:
1: 948 µM; 2: > 100 µM; 3: 23.5 µM; 4: 8.95 µM
